ASSAY NAME: activity coefficient (dimensionless); of the first substance listed, at infinite dilution; xn = mol fraction of the nth substance listed
MEASUREMENT CONTEXT: 358.15 K; Liquid; Chromatography; x1 = 0
REPORTED PROPERTY: activity coefficient

# count of solved cases: 3
CCCCCCCCCC [decane] + CCCCn1cc[n+](C)c1.N#CN=C=[N-]; 221
CCC(C)CC [3-methylpentane] + CCCCn1cc[n+](C)c1.N#CN=C=[N-]; 47.1
CC(C)CO [2-methyl-1-propanol] + CCCCn1cc[n+](C)c1.N#CN=C=[N-]; 1.09

Quick one: activity coefficient of O [water] + CCCCn1cc[n+](C)c1.N#CN=C=[N-] ?
0.363

What do we get for C1CCOC1 [tetrahydrofuran] + CCCCn1cc[n+](C)c1.N#CN=C=[N-] ?
1.85

* * *

ASSAY NAME: activity coefficient (dimensionless); of the first substance listed, at infinite dilution; xn = mol fraction of the nth substance listed
MEASUREMENT CONTEXT: 348.15 K; Liquid; Chromatography; x1 = 0
Catalogue of compounds with associated activity coefficient
Give the value as a plain number.

Example cases with answers are listed next.
CCc1ccccc1 [ethylbenzene] + CCCCn1cc[n+](C)c1.N#CN=C=[N-]; 5.19
C#CCCC [1-pentyne] + CCCCn1cc[n+](C)c1.N#CN=C=[N-]; 4.38
CC(C)c1ccccc1 [isopropylbenzene] + CCCCn1cc[n+](C)c1.N#CN=C=[N-]; 7.93
Cc1ccccc1C [1,2-dimethylbenzene] + CCCCn1cc[n+](C)c1.N#CN=C=[N-]; 4.27
C#CCCCCCC [1-octyne] + CCCCn1cc[n+](C)c1.N#CN=C=[N-]; 13.9

Tell me the measured activity coefficient of c1ccccc1 [benzene] + CCCCn1cc[n+](C)c1.N#CN=C=[N-] , please.
2.11

Same thing, different compound: C=CCCCCC [1-heptene] + CCCCn1cc[n+](C)c1.N#CN=C=[N-]
37.7

* * *

ASSAY NAME: activity coefficient (dimensionless); of the first substance listed, at infinite dilution; xn = mol fraction of the nth substance listed
MEASUREMENT CONTEXT: 358.15 K; Liquid; Chromatography; x1 = 0
REPORTED PROPERTY: activity coefficient
API doc: respond with a numeric literal and nothing else, no unit.

Before answering, review these 2 worked examples.
CCc1ccccc1 [ethylbenzene] + CCCCn1cc[n+](C)c1.N#CN=C=[N-]; 5.33
CCC(=O)OC [methyl propanoate] + CCCCn1cc[n+](C)c1.N#CN=C=[N-]; 2.81

For C#CCCCCC [1-heptyne] + CCCCn1cc[n+](C)c1.N#CN=C=[N-] , what is its reported activity coefficient?
9.77

* * *

Listing: activity coefficient of selected molecules
ASSAY NAME: activity coefficient (dimensionless); of the first substance listed, at infinite dilution; xn = mol fraction of the nth substance listed
MEASUREMENT CONTEXT: 328.15 K; Liquid; Chromatography; x1 = 0

Sample answers from the record:
CC1CCCCC1 [methylcyclohexane] + CCCCn1cc[n+](C)c1.N#CN=C=[N-]; 38.3
C=CCCCCCC [oct-1-ene] + CCCCn1cc[n+](C)c1.N#CN=C=[N-]; 58.9
Cc1ccccc1 [toluene] + CCCCn1cc[n+](C)c1.N#CN=C=[N-]; 3.01

# lookup: activity coefficient of CCCC=O [butanal] + CCCCn1cc[n+](C)c1.N#CN=C=[N-]
1.67

Another molecule to look at: CC(C)CO [2-methyl-1-propanol] + CCCCn1cc[n+](C)c1.N#CN=C=[N-]
1.08

Request: c1ccccc1 [benzene] + CCCCn1cc[n+](C)c1.N#CN=C=[N-]
1.95

Let us now turn to C1COCCO1 [1,4-dioxane] + CCCCn1cc[n+](C)c1.N#CN=C=[N-]
1.13
